All figures here come from ChEMBL document CHEMBL3988442.

The entries below are paired with their reported Percent Effect.
Assay: In vitro enzyme assay to detect hydrolysis of chlorophenol red-beta-D-[…] directly proportional to the number of Toxoplasma stably expressing beta-galactosidase
Format: functional, organism-based, Toxoplasma gondii
Design: scale not given: in the data most compounds retested in dose-response had high values
Details: 50 µM
Screen size: about 85,000 compounds; about 440 (0.52%) showed an effect of 50% or more. The full list was thinned out, with strong results kept by preference.
measurement_name: Percent Effect (%)

{"columns": ["compound", "measurement_name", "measurement"],
 "data": [
  ["O=C(NCc1ccc2c(c1)OCO2)n1ccnc1", "Percent Effect", 96.82],
  ["CCC(N)C(=O)N1CCN(c2ccncc2Cl)CC1 (configuration not stated)", "Percent Effect", 0.3763],
  ["COc1cc(CN)cc(Br)c1OC", "Percent Effect", 0.1756],
  ["CC(CNC(=O)c1cccc(OC(F)F)c1)N(C)C (configuration not stated)", "Percent Effect", -0.9989],
  ["NC(=O)CN1CCCN(C(=O)c2ccc(Br)o2)CC1", "Percent Effect", -5.913],
  ["CC(NS(C)(=O)=O)C(=O)NCCCc1ccncc1 (configuration not stated)", "Percent Effect", 0.4518],
  ["CCn1cc(S(=O)(=O)N2CCNCC2)c(C)n1", "Percent Effect", -15.85]
]}
